Assay: Cell Viability - NIH 3T3 (AID 541);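 note: cells exposed to compound for 40 hours; plate controls were DMSO alone for no effect and tamoxifen positive control for full effect; nearly all actives have a fitted effect of over 25% in size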
Conditions: NIH 3T3 cell viability, qHTS; at 92.2 µM (top of the series)
Description: NIH Chemical Genomics Center [NCGC] NIH Molecular Libraries Screening Centers Network [MLSCN] National Institutes of Environmental Health Sciences [NIEHS] National Toxicology Program [NTP] We have developed a 1536-well cell-based assay for quantitative high throughput screening (qHTS) against a number of cell lines to determine in vitro cytotoxicity of small molecules. […] 8. Detection; Luminescence; Viewlux plate reader […]
Results filed as inconclusive are left out. Activity calls are given as the source filed them. Calls come from the whole dose curve; as a rule, active = well fitted cell-killing curve with a large enough effect; inconclusive = small, poorly fitted or top-dose-only effect; inactive = flat fitted curve, though single readings scatter.
One label from this list, please: 1 = active, 0 = inactive

Field: example entries. Status: answers known.
* Cc1ccnc2c1NC(=O)c1cccnc1N2C1CC1 | 0
* C[C@]12C=CC(=O)C=C1CC[C@@H]1[C@@H]2C(=O)C[C@@]2(C)[C@H]1CC[C@]2(O)C(=O)CO | 0
* O=C(N[C@H](CO)[C@H](O)c1ccc([N+](=O)[O-])cc1)C(Cl)Cl | 0
* Cc1noc(NS(=O)(=O)c2ccc(N)cc2)c1C | 0

Consider the additional compound presented here.
### Prompt Recorded test outcome, item CC(=O)[C@H]1CC[C@H]2[C@@H]3CCC4=CC(=O)CC[C@]4(C)[C@H]3CC[C@]12C
### Response 1

---

tested on: MKL-2; test: qHTS assay to identify novel small-molecules to repurpose for Merkel cell carcinoma treatment (AID 1296009); conditions: MCC and control cell lines, CellTiter-Glo viability, 72 h; series mostly up to 46 µM; note: nearly all actives have a fitted effect of over 60% in size
Inconclusive results are not listed. Active and inactive are the calls of the source. Calls follow the shape of the dose curve; as a rule, active = well fitted inhibition curve with a large enough effect; inconclusive = small, poorly fitted or top-dose-only effect; inactive = flat fitted curve, though single readings scatter.
value-type: outcome

The cases that follow already have their outcome on record.
• Cc1nnc(C(=O)NC(C)(C)c2nc(C(=O)NCc3ccc(F)cc3)c(O)c(=O)n2C)o1 = inactive
• Clc1ccccc1CN1CCc2sccc2C1 = inactive
• CC(C(=O)O)c1ccc2c(c1)CC(=O)c1ccccc1S2 (configuration not stated) = inactive
• CC(C)(Sc1cc(C(C)(C)C)c(O)c(C(C)(C)C)c1)Sc1cc(C(C)(C)C)c(O)c(C(C)(C)C)c1 = inactive
• CCN[C@H]1C[C@H](C)S(=O)(=O)c2sc(S(N)(=O)=O)cc21 = inactive

### Prompt Return outcome for the following molecule: O=c1oc2c(O)c(O)cc3c(=O)oc4c(O)c(O)cc1c4c23
### Response inactive

---

assay: Quantitative High-Throughput drug screen in 47 multiple myeloma cell lines against the NCATS MIPE library collection: PE2_PLB cell viability assay (AID 1919869); conditions: PE2_PLB myeloma cells viability, ATP luminescence, 48 h; series mostly up to 45.8 µM; note: nearly all actives have a fitted effect of over 35% in size
Inconclusive results are not listed. The source made the active and inactive calls. Calls follow the shape of the dose curve; as a rule, active = well fitted cell-killing curve with a large enough effect; inconclusive = small, poorly fitted or top-dose-only effect, or effect the other way; inactive = no such curve, though single readings can be large or run the other way.
One label from this list, please: active, inactive

* CC1CC2C3CCC4=CC(=O)C=C[C@]4(C)[C@@]3(F)[C@@H](O)C[C@]2(C)[C@@]1(O)C(=O)CO (stereo not given in full) | inactive
* COCCCOc1cc(C[C@@H](C[C@H](N)[C@@H](O)C[C@H](C(=O)NCC(C)(C)C(N)=O)C(C)C)C(C)C)ccc1OC | inactive
* CN1CCCC(n2nc(Cc3ccc(Cl)cc3)c3ccccc3c2=O)CC1 (stereo not given) | active

### Prompt Recorded test outcome, item O[C@@H](CNC[C@H](O)[C@H]1CCc2cc(F)ccc2O1)[C@@H]1CCc2cc(F)ccc2O1
### Response active

### Prompt Recorded test outcome, item O=C(O)c1cn(C2CC2)c2cc(N3CCNCC3)c(F)cc2c1=O
### Response inactive

### Prompt Recorded test outcome, item COc1nc(N)nc2c1ncn2[C@@H]1O[C@H](CO)[C@@H](O)[C@@H]1O
### Response inactive

### Prompt Recorded test outcome, item CC(C)NCC(O)c1ccc(NS(C)(=O)=O)cc1 (stereo not given)
### Response inactive

### Prompt Recorded test outcome, item COc1cc2nc(N3CCCN(C)CC3)nc(NC3CCN(Cc4ccccc4)CC3)c2cc1OC
### Response active

### Prompt Recorded test outcome, item Cc1cccc(Nc2ccncc2S(=O)(=O)NC(=O)NC(C)C)c1
### Response inactive

### Prompt Recorded test outcome, item CCCN[C@H]1CCc2nc(N)sc2C1
### Response inactive

Value source: PubChem BioAssay (NCATS)
